# experimental.details: Open-label clinical pharmacokinetic study of oral XBD173 and etifoxine in healthy volunteers (plasma LC-MSMS)
# Format: in vivo, human
# conditions.used: human, plasma, po, 90 mg, 90 mg XBD173 single oral dose; Median of 4 participants
reported.metric: Tmax (h)
All answers are understood in h, so give the number only.

Entry under test: CCN(Cc1ccccc1)C(=O)Cn1c(=O)n(C)c2cnc(-c3ccccc3)nc21 [XBD173] . Its Tmax was 2.5

---

# experimental.details: Open-label clinical pharmacokinetic study of oral XBD173 and etifoxine in healthy volunteers (plasma LC-MSMS)
# Type: in vivo, human
# conditions.used: human, plasma, po, 90 mg, 90 mg XBD173 single oral dose; participant 3
reported.metric: AUC(0-t) (ng·h/mL)
All answers are understood in ng·h/mL, so give the number only.

Entry under test: CCN(Cc1ccccc1)C(=O)Cn1c(=O)n(C)c2cnc(-c3ccccc3)nc21 . Its AUC(0-t) was 556
